# pIC50 per entry for RORγ LBD (Homo sapiens (Human), UniProt P51449)
pIC50: −log10 of the molar value.

Any idea what its pIC50 is? The molecule is CC(=O)Nc1ccc2c(c1)CCN2Cc1ccc(C(O)(C(F)(F)F)C(F)(F)F)cc1 [Example 4]
> 5.00

Moving on to CC(=O)Nc1ccc2c(c1)CCCN2Cc1ccc(C(O)(C(F)(F)F)C(F)(F)F)cc1 [Example 2]
> 5.00

One more molecule: CS(=O)(=O)Nc1ccc2c(c1)CCCN2Cc1ccc(C(O)(C(F)(F)F)C(F)(F)F)cc1 [Example 5]
> 5.00

// repeat for CC(=O)Nc1ccc2c(c1)CCC(=O)N2Cc1ccc(C(O)(C(F)(F)F)C(F)(F)F)cc1 [Example 3] and report
< 5.00

----------
EC50 values, listed per item
# Study target: RORγ LBD (Homo sapiens (Human), UniProt P51449)
# Sequence (P51449 269-508): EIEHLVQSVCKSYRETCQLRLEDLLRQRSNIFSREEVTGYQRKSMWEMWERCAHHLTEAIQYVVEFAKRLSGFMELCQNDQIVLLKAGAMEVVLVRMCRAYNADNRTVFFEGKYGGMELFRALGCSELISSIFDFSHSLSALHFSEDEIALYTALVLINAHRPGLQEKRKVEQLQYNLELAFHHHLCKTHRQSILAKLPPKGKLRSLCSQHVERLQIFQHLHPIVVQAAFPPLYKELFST
# Experiment summary: TR-FRET co-repressor NCoR1-D2 interaction with RORγ LBD
# Type: biochemical
# Conditions used: 20 hr; read-out: RORγ EC50 NCoR1-D2 co-repressor recruitment 20 hr

Quick one: EC50 of `CC(=O)Nc1ccc2c(c1)CCN2Cc1ccc(C(=O)N(C)C)cc1` ?
> 30 µM

`CC(=O)Nc1ccc2c(c1)CCCN2Cc1ccc(C(O)(C(F)(F)F)C(F)(F)F)cc1` ?
> 30 µM

Another molecule to check: `CC(=O)Nc1ccc2c(c1)CCN2Cc1ccc(C(O)(C(F)(F)F)C(F)(F)F)cc1`
< 30 µM

Same thing, different molecule: `CS(=O)(=O)Nc1ccc2c(c1)CCC(=O)N2Cc1ccc(C(O)(C(F)(F)F)C(F)(F)F)cc1`
> 30 µM

Next record, please: `CC(=O)Nc1ccc2c(c1)CCN2Cc1ccc(C2(O)CCC2)cc1`
> 30 µM

// next record `CC(=O)Nc1ccc2c(c1)CCN2Cc1ccc(C(=O)Nc2ccccc2)cc1`
> 30 µM

Again, but for `CS(=O)(=O)Nc1ccc2c(c1)CCCN2Cc1ccc(C(O)(C(F)(F)F)C(F)(F)F)cc1`
< 30 µM

Could you do the same for `CC(=O)Nc1ccc2c(ccn2Cc2ccc(C(O)(C(F)(F)F)C(F)(F)F)cc2)c1` , please?
> 30 µM

Next entry: `CC(=O)Nc1ccc2c(c1)CCN2Cc1ccc(C(C)C)cc1`
> 30 µM

Similarly, `CC(=O)Nc1ccc2c(c1)CCN2Cc1ccc(C(N)=O)cc1` ?
> 30 µM

----------
# Experiment summary: TH17 cell viability (Prestoblue)
# Assay type: cell-based
# Parameters: concentration or dose not given beside the values
# Conditions used: human; percentage of DMSO treated cells; read-out: % viability of compound treated TH17 cells
Known viability of a selection of compounds

Answered cases to consult:
Report viability for CS(=O)(=O)Nc1ccc2c(c1)CCC(=O)N2Cc1ccc(C(O)(C(F)(F)F)C(F)(F)F)cc1 [Example 6] please.
> 80%

Next compound: CC(=O)Nc1ccc2c(c1)CCN2Cc1ccc(-c2cc(C)n[nH]2)cc1 [Example 9]
> 80%

Could you do the same for CS(=O)(=O)Nc1ccc2c(c1)CCCN2Cc1ccc(C(O)(C(F)(F)F)C(F)(F)F)cc1 [Example 5] , please?
> 80%

Next up: CNC(=O)c1ccc(CN2CCc3cc(NC(C)=O)ccc32)cc1 [Example 12]
> 80%

Consider the additional compound presented here.
Report viability for CC(=O)Nc1ccc2c(c1)CCN2Cc1ccc(C(=O)Nc2ccccc2)cc1 [Example 15] please.
> 80%

----------
# Study target: RORγ LBD (Homo sapiens (Human))
# Experiment summary: TR-FRET co-activator D22 interaction with RORγ LBD
# Format: biochemical
# Conditions used: 20 hr; co-activator recruitment (π); read-out: RORγ EC50 D22 20 hr (demonstrates co-activator recruitment)
Readout name: EC50

Which EC50 is reported with RORγ LBD (Homo sapiens (Human)) for this entry: `CNC(=O)c1ccc(CN2CCc3cc(NC(C)=O)ccc32)cc1` ?
< 30 µM

----------
# Study target: RORγ LBD (Homo sapiens (Human))
# Experiment summary: TR-FRET co-repressor NCoR1-D2 interaction with RORγ LBD
# Type: biochemical
# Conditions used: 2 hr; read-out: RORγ EC50 NCoR1-D2 co-repressor recruitment 2 hr
Readout name: EC50

Which EC50 reading was recorded for the compound `CC(=O)Nc1ccc2c(c1)CCN2Cc1ccc(C(=O)Nc2ccccc2)cc1` ?
> 30 µM

Okay, and `CC(=O)Nc1ccc2c(ccn2Cc2ccc(C(O)(C(F)(F)F)C(F)(F)F)cc2)c1` ?
> 30 µM

Same lookup for `CC(=O)Nc1ccc2c(c1)CCCN2Cc1ccc(C(O)(C(F)(F)F)C(F)(F)F)cc1` , please.
> 30 µM

Now give it for `CS(=O)(=O)Nc1ccc2c(c1)CCC(=O)N2Cc1ccc(C(O)(C(F)(F)F)C(F)(F)F)cc1` too.
< 30 µM

More entries:
Query (compound): `CC(=O)Nc1ccc2c(c1)CCN2Cc1ccc(C(O)(C(F)(F)F)C(F)(F)F)cc1` ; field requested: EC50
< 30 µM

----------
# Study target: RORα LBD (Homo sapiens (Human), UniProt P35398)
# Sequence (P35398 272-510): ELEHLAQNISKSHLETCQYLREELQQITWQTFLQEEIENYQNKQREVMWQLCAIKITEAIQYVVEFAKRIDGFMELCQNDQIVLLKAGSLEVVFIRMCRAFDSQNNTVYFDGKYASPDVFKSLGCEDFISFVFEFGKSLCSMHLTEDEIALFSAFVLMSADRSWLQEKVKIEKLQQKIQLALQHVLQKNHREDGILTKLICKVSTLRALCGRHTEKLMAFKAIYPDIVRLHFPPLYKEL
# Experiment summary: TR-FRET co-repressor NCoR1-D2 interaction with RORα LBD
# Assay type: biochemical
# Conditions used: 20 hr; co-repressor displacement (Ω); read-out: RORα EC50 NCoR1-D2 20 hr (demonstrates co-repressor displacement)
# Experimental: The Time-Resolved Fluorescence Resonance Energy Transfer (TR-FRET) assay kit (Life Technologies) was used to measure compound efficacy to disrupt or enhance ligand-mediated interaction of the co-activator and co-repressor peptides with the purified GST-tagged (i) RORγ LBD or (ii) RORγ LBD. […] The assay was performed as per manufacturer's instructions and TR-FRET was assessed 2 and 20 hours post-assay initiation. […]
pEC50: −log10 of the molar value.
Readout name: pEC50

Fill in: pEC50 of `CNC(=O)c1ccc(CN2CCc3cc(NC(C)=O)ccc32)cc1` is ___
> 4.52

----------
# Study target: RORα LBD (Homo sapiens (Human), UniProt P35398)
# Experiment summary: TR-FRET co-activator D22 interaction with RORα LBD
# Format: biochemical
# Conditions used: 20 hr; read-out: RORα EC50 D22 co-activator displacement 20 hr
Readout name: EC50

Which EC50 value is on record for CC(=O)Nc1ccc2c(c1)CCC(=O)N2Cc1ccc(C(O)(C(F)(F)F)C(F)(F)F)cc1 [Example 3] ?
> 30 µM

One more compound: CC(=O)Nc1ccc2c(c1)CCN2Cc1ccc(C(=O)N(C)c2ccccc2)cc1 [Example 14]
> 30 µM

CC(=O)Nc1ccc2c(c1)CCN2Cc1ccc(C(C)C)cc1 [Example 8] ?
> 30 µM

Also check CC(=O)Nc1ccc2c(c1)CCN2Cc1ccc(C2(O)CCC2)cc1 [Example 10]
< 30 µM

# iterate: CS(=O)(=O)Nc1ccc2c(c1)CCCN2Cc1ccc(C(O)(C(F)(F)F)C(F)(F)F)cc1 [Example 5]
< 30 µM

Can you check CC(=O)Nc1ccc2c(c1)CCCN2Cc1ccc(C(O)(C(F)(F)F)C(F)(F)F)cc1 [Example 2] next?
> 30 µM

Others:
Give the measured EC50 of CC(=O)Nc1ccc2c(c1)CCN2Cc1ccc(C(O)(C(F)(F)F)C(F)(F)F)cc1 [Example 4] .
> 30 µM

Same again, this time with CC(=O)Nc1ccc2c(c1)CCN2Cc1ccc(-c2cc(C)n[nH]2)cc1 [Example 9]
> 30 µM

----------
# Study target: RORγ LBD (Homo sapiens (Human))
# Experiment summary: TR-FRET co-activator D22 interaction with RORγ LBD
# Type: biochemical
# Conditions used: 2 hr; co-activator recruitment (π); read-out: RORγ EC50 D22 2 hr (demonstrates co-activator recruitment)
Measured EC50 of individual entries

Form field - read-out: EC50; system: RORγ LBD (Homo sapiens (Human)); submitted item: `CC(=O)Nc1ccc2c(c1)CCN2Cc1ccc(C(=O)N(C)c2ccccc2)cc1`
< 30 µM

Try `CC(=O)Nc1ccc2c(c1)CCN2Cc1ccc(C(N)=O)cc1` next.
< 30 µM

Let us examine a further case.
Any idea what EC50 came out for `CNC(=O)c1ccc(CN2CCc3cc(NC(C)=O)ccc32)cc1` on RORγ LBD (Homo sapiens (Human))?
< 30 µM

----------
# Experiment summary: TH17 cell viability (Prestoblue)
# Type: cell-based
# Design: concentration or dose not given beside the values
# Conditions used: human; percentage of DMSO treated cells; read-out: % viability of compound treated TH17 cells
Reported viability values follow for various molecules

What value of viability has been reported for the following molecule? `CC(=O)Nc1ccc2c(c1)CCN2Cc1ccc(C(=O)N(C)C)cc1`
> 80%

Now the same for `CC(=O)Nc1ccc2c(c1)CCN2Cc1ccc(C(N)=O)cc1`
> 80%

Quick one: `CC(=O)Nc1ccc2c(c1)CCN2Cc1ccc(C(O)(C(F)(F)F)C(F)(F)F)cc1`
> 80%

Ok, now `CC(=O)Nc1ccc2c(c1)CCN2Cc1ccc(C(C)C)cc1`
> 80%

Another: `CC(=O)Nc1ccc2c(c1)CCN2Cc1ccc(C(=O)N(C)c2ccccc2)cc1`
> 80%

New cases:
Could you share which viability value was measured for `CC(=O)Nc1ccc2c(ccn2Cc2ccc(C(O)(C(F)(F)F)C(F)(F)F)cc2)c1` ?
> 80%

Same lookup for `CC(=O)Nc1ccc2c(c1)CCN2Cc1ccc(C2(O)CCC2)cc1` , please.
> 80%
